target: CDK7/CycH/Mat1 (Homo sapiens, UniProt P50613); construct: purchased Carna; experiment: CDK7 Enzymatic Activity Assay (Lance Kinase Activity Assay, FRET); type: biochemical; details: Table 5A; 25 μM ATP final; read-out: CDK7: IC50 [mM] for CDK7 inhibition (the above defined ranges apply)
Sequence (P50613 whole entry): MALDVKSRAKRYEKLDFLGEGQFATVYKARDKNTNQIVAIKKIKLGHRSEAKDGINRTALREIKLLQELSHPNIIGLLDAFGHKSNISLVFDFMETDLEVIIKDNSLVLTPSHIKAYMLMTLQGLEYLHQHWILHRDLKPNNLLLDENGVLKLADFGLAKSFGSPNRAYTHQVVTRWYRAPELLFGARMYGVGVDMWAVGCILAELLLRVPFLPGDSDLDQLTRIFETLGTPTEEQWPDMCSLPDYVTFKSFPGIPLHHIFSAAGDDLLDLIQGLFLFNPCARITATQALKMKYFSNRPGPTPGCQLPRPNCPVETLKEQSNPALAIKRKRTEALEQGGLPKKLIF
Sequence (P51946 whole entry partner): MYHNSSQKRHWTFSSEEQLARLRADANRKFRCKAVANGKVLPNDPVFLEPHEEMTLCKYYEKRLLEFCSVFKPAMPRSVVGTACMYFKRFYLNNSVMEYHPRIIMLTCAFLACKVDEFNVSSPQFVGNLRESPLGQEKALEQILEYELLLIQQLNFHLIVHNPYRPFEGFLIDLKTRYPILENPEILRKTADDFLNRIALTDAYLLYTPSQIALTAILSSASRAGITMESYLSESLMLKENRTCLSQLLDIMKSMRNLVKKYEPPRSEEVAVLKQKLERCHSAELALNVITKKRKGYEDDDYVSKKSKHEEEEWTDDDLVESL
Sequence (P51948 whole entry partner): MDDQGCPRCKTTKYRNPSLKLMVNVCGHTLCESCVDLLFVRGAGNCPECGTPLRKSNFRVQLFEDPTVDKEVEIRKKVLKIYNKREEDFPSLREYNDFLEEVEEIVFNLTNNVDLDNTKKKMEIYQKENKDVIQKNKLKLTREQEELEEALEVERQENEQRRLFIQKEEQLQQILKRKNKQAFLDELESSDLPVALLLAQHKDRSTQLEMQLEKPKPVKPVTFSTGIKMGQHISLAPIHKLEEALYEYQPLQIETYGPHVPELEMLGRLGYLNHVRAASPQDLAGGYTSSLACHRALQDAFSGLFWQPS
endpoint_name: IC50

Worked cases, IC50 given:
# compound, obs_value
records = [
    ("CC(C)Oc1cccc([C@H](C)Nc2nc(O[C@@H]3CCCNC3)nc3c(C(C)C)cnn23)c1", "10 to 30 nM"),
    ("COc1cccc([C@H](C)Nc2nc(N3CCC4(CCNC4)C3)nc3c(C(C)C)cnn23)c1 (some centres unmarked)", "10 to 30 nM"),
    ("COc1cccc([C@H](C)Nc2nc(CN3CCNCC3)nc3c(C(C)C)cnn23)c1", "> 100 nM"),
    ("CC(C)c1cnn2c(N[C@@H](C)c3ccccc3)nc(OC3CCNC3)nc12 (some centres unmarked)", "< 10 nM"),
    ("COc1cccc([C@H](C)Nc2nc(N3CCC(N)C3)nc3c(C(C)C)cnn23)c1 (some centres unmarked)", "> 100 nM"),
    ("COc1cccc([C@H](C)Nc2nc(N3CC(N4CCCC4=O)C3)nc3c(C(C)C)cnn23)c1", "> 100 nM"),
    ("CC(C)c1cnn2c(N[C@@H](C)c3ccccc3O)nc(O[C@@H]3CCCNC3)nc12", "< 10 nM"),
]

From here, focus on the item given below.
Consider the compound COc1ccc(C(C)Nc2nc(O[C@@H]3CCCNC3)nc3c(C(C)C)cnn23)cc1 (some centres unmarked) tested on CDK7/CycH/Mat1 (Homo sapiens, UniProt P50613); state its IC50.
> 100 nM

Hey, just so you know, these numbers are from patent US9096608B2.
